Taken from PubChem BioAssay AID1963865.

Each entry below carries its reported viability, T/C.
tested on: KRAS PDC multicell spheroid viability; assay: Anticancer human tumor 825966-067-R-J1-PDC patient-derived colon carcinoma cell line growth inhibition [KRAS2]; settings: second compound 0.1 µM; first compound 0.01 µM; active compounds read low;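 further: spheroids exposed to compounds for 7 days; 100% = DMSO vehicle control viability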
Reply numerically in %, unit not repeated.

• CCN1CCN(Cc2ccc(Nc3ncc(F)c(-c4cc(F)c5nc(C)n(C(C)C)c5c4)n3)nc2)CC1 + C=CC(=O)N1CCN(c2nc(OCC3CCCN3C)nc3c2CCN(c2cccc4cccc(C)c24)C3)CC1CC#N = 114

Query: Given CC(C)n1nc(-c2ccc3oc(N)nc3c2)c2c(N)ncnc21 + COc1cc2nc(C)nc(NC(C)c3cc(N)cc(C(F)(F)F)c3)c2cc1OC1CCOC1 , state its recorded viability, T/C.
Result: 154

Query: For the molecule CC(C)n1nc(-c2ccc3oc(N)nc3c2)c2c(N)ncnc21 + CNCc1ccccc1-c1csc(C(C)Nc2nc(C)nc3cc(OC)c(OC)cc23)c1 , what viability, T/C is on record?
Result: 185
